- System: human SMAD7 mRNA
- PROTOCOL DETAILS: Antisense inhibition of human SMAD7 mRNA expression in Hep3B cells by 3-10-3 cEt gapmers, 10,000 nM, electroporation (Example 2)
- Assay type: cell-based
- ASSAY CONDITIONS: Hep3B cells, electroporation with 10,000 nM antisense oligonucleotide, approximately 24 hours, primer probe set RTS5062, relative to untreated control cells
Strand notation (5' to 3'): a small letter for the sugar, then the base; units joined by * are phosphorothioate-linked, units joined directly phosphodiester-linked; [ ] holds rarer units or linkages, { } end groups; capitals alone tell only the bases. k = constrained ethyl (cEt); [5mC] = 5-methylcytosine; d = 2'-deoxy (DNA)
VALUE TYPE: % inhibition of SMAD7 mRNA expression
Answers without a unit are incomplete; give the number and then its unit.

Example entries and their recorded answers appear below.
SUBSTANCE	STUDY SYSTEM	% inhibition of SMAD7 mRNA expression
798989 (antisense kA*kA*kG*dT*dG*dA*dA*dA*dT*dG*dA*dT*dG*kA*k[5mC]*k[5mC]) [compound 798989]	human SMAD7 mRNA	8%
798727 (antisense kT*kG*kG*d[5mC]*dA*d[5mC]*d[5mC]*dT*d[5mC]*dG*d[5mC]*dA*d[5mC]*k[5mC]*kG*k[5mC]) [compound 798727]	human SMAD7 mRNA	51%
798987 (antisense kA*kA*kT*dG*dA*dT*dG*dA*d[5mC]*d[5mC]*dG*d[5mC]*d[5mC]*k[5mC]*k[5mC]*k[5mC]) [compound 798987]	human SMAD7 mRNA	84%
799084 (antisense k[5mC]*kT*kT*dG*dG*dG*dA*dA*dG*d[5mC]*d[5mC]*d[5mC]*dA*kT*k[5mC]*kT) [compound 799084]	human SMAD7 mRNA	0%
799107 (antisense k[5mC]*kT*kG*dG*dT*dT*dT*dT*d[5mC]*dT*dA*dA*dG*kT*k[5mC]*k[5mC]) [compound 799107]	human SMAD7 mRNA	51%

Next, consider the following substance.
Form field % inhibition of SMAD7 mRNA expression, entry 799169 (antisense kT*kT*kG*dA*dG*d[5mC]*dT*dA*dA*dG*dA*dA*d[5mC]*kA*kG*kT) [compound 799169] : 0%

The values you see were collected from patent US10517889B2.
